Tested on: E. coli
Experiment: Broth dilution MIC determination (CLSI) against E. coli strains
Format: cell-based
Details: NDM-1

# COMPOUND, TESTED SYSTEM, MIC E. coli NDM-1
data = [
    ("CCC1OC(=O)C(C)C(=O)C(C)C(OC2OC(Cn3cc(-c4cccc(N)n4)nn3)CC(N(C)C)C2O)C(C)(OC)CC(C)CNC(C)C2N(CCCCn3cc(-c4cccc(N)c4)nn3)C(=O)OC12C (centres unmarked)", "E. coli", ">32 µg/mL"),
    ("CC[C@H]1OC(=O)[C@H](C)C(=O)[C@H](C)[C@@H](O[C@@H]2OC(Cn3cc(-c4ccccn4)nn3)CC(N(C)C)C2O)[C@](C)(OC)C[C@@H](C)CN[C@H](C)[C@H]2N(CCCCn3cc(-c4cccc(N)c4)nn3)C(=O)O[C@]12C (some centres unmarked)", "E. coli", ">32 µg/mL"),
    ("CCC1OC(=O)C(C)(F)C(=O)C(C)C(OC2OC(COC(=O)c3ccccc3)C(O)C(N(C)C)C2O)C(C)(OC)CC(C)CNC(C)C2N(CCCCn3cc(-c4cccc(N)c4)nn3)C(=O)OC12C (centres unmarked)", "E. coli", ">32 µg/mL"),
    ("CCC1OC(=O)C(C)C(=O)C(C)C(OC2OC(Cn3cc(-c4cnc(N)s4)nn3)CC(N(C)C)C2O)C(C)(OC)CC(C)CNC(C)C2N(CCCCn3cc(-c4cccc(N)c4)nn3)C(=O)OC12C (centres unmarked)", "E. coli", ">32 µg/mL"),
    ("CCC1OC(=O)C(C)C(=O)C(C)C(OC2OC(COC(=O)c3ccccc3)C(O)C(N(C)C)C2O)C(C)(OC)CC(C)CNC(C)C2N(CCCCn3cc(-c4cccc(N)c4)nn3)C(=O)OC12C (centres unmarked)", "E. coli", ">32 µg/mL"),
]

* * *

The compounds listed here are annotated with their MIC.
Tested on: E. coli
Assay: Broth dilution MIC determination (CLSI) against E. coli strains
Format: cell-based
Details: Escherichia coli, read-out: MIC E. coli TEM-1, TEM-1
MEASURED PROPERTY: MIC

# COMPOUND, MEASURED PROPERTY, RESULT
measured = [
    ("CC[C@H]1OC(=O)[C@H](C)[C@@H](O[C@H]2C[C@@](C)(OC)[C@@H](O)[C@H](C)O2)[C@H](C)[C@@H](O[C@@H]2O[C@H](C)C[C@H](N(C)C)[C@H]2O)[C@](C)(O)C[C@@H](C)CN(C)[C@H](C)[C@@H](O)[C@]1(C)O [Azithromycin, azithromycin, reference compound]", "MIC", "1 µg/mL"),
    ("CC[C@H]1OC(=O)[C@H](C)C(=O)[C@H](C)[C@@H](O[C@@H]2OC(CN(C)C)CC(N(C)C)C2O)[C@](C)(OC)C[C@@H](C)CN(C)[C@H](C)[C@H]2N(CCCCn3cc(-c4cccc(N)c4)nn3)C(=O)O[C@]12C (stereo partly shown)", "MIC", "32 µg/mL"),
    ("CC[C@H]1OC(=O)[C@H](C)C(=O)[C@H](C)[C@@H](O[C@@H]2OC(Cn3cc(-c4ccccn4)nn3)CC(N(C)C)C2O)[C@](C)(OC)C[C@@H](C)CN[C@H](C)[C@H]2N(CCCCn3cc(-c4cccc(N)c4)nn3)C(=O)O[C@]12C (stereo partly shown)", "MIC", "16 µg/mL"),
    ("CC[C@H]1OC(=O)[C@H](C)C(=O)[C@H](C)[C@@H](O[C@@H]2OC(CN)CC(N(C)C)C2O)[C@](C)(OC)C[C@@H](C)CN[C@H](C)[C@H]2N(CCCCn3cc(-c4cccc(N)c4)nn3)C(=O)O[C@]12C (stereo partly shown)", "MIC", "8 µg/mL"),
]

* * *

The molecules listed here are annotated with their MIC S. pneumoniae erm B + tet(M, O) genotype.
System: S. pneumoniae
Assay: Broth dilution MIC determination (CLSI) against S. pneumoniae strains
Format: cell-based
Conditions: erm B + tet(M, O) genotype
MEASURED PROPERTY: MIC S. pneumoniae erm B + tet(M, O) genotype

# MOLECULE, RESULT
data = [
    ("CC[C@H]1OC(=O)[C@H](C)C(=O)[C@H](C)[C@@H](O[C@@H]2OC(Cn3cc(-c4ccccn4)nn3)CC(N(C)C)C2O)[C@](C)(OC)C[C@@H](C)CN[C@H](C)[C@H]2N(CCCCn3cc(-c4cccc(N)c4)nn3)C(=O)O[C@]12C (some centres unmarked)", "<0.03125 mg/L"),
    ("CCC1OC(=O)C(C)C(=O)C(C)C(OC2OC(COC(=O)c3ccccc3)C(O)C(N(C)C)C2O)C(C)(OC)CC(C)CNC(C)C2N(CCCCn3cc(-c4cccc(N)c4)nn3)C(=O)OC12C (centres unmarked)", "16 mg/L"),
    ("CCC1OC(=O)C(C)C(=O)C(C)C(OC2OC(Cn3cc(-c4cccc(N)n4)nn3)CC(N(C)C)C2O)C(C)(OC)CC(C)CNC(C)C2N(CCCCn3cc(-c4cccc(N)c4)nn3)C(=O)OC12C (centres unmarked)", "<0.03125 mg/L"),
    ("CCC1OC(=O)C(C)(F)C(=O)C(C)C(OC2OC(COC(=O)c3ccccc3)C(O)C(N(C)C)C2O)C(C)(OC)CC(C)CNC(C)C2N(CCCCn3cc(-c4cccc(N)c4)nn3)C(=O)OC12C (centres unmarked)", ">32 mg/L"),
    ("CCC1OC(=O)C(C)C(=O)C(C)C(OC2OC(Cn3cc(-c4cnc(N)s4)nn3)CC(N(C)C)C2O)C(C)(OC)CC(C)CNC(C)C2N(CCCCn3cc(-c4cccc(N)c4)nn3)C(=O)OC12C (centres unmarked)", "<0.03125 mg/L"),
]

* * *

System: E. faecalis
Test: Broth dilution MIC determination (CLSI) against E. faecalis strains
Assay type: cell-based
Conditions: E. faecalis van resistant, strain UNT-039 (Table N2)
The compounds listed here are annotated with their MIC.
MEASURED PROPERTY: MIC

# COMPOUND, RESULT
data = [
    ("CCC1OC(=O)C(C)C(=O)C(C)C(OC2OC(C)CC(N3CCOC3CO)C2O)C(C)(OC)CC(C)CNC(C)C2N(CCCCn3cc(-c4cccc(N)c4)nn3)C(=O)OC12C (centres unmarked) [FSM-120380]", ">64 µg/mL"),
    ("CCC1OC(=O)C(C)C(=O)C(C)C(OC2OC(C)CC(N(C)CC#N)C2O)C(C)(OC)CC(C)CNC(C)C2N(CCCCn3cc(-c4cccc(N)c4)nn3)C(=O)OC12C (centres unmarked) [FSM-120371]", "64 µg/mL"),
    ("CCC1OC(=O)C(C)C(=O)C(C)C(OC2OC(C)CC(N(C)Cc3cccnc3)C2O)C(C)(OC)CC(C)CNC(C)C2N(CCCCn3cc(-c4cccc(N)c4)nn3)C(=O)OC12C (centres unmarked) [FSM-120385]", ">64 µg/mL"),
    ("CCC1OC(=O)C(C)C(=O)C(C)C(OC2OC(C)CC(N(CCO)CCO)C2O)C(C)(OC)CC(C)CNC(C)C2N(CCCCn3cc(-c4cccc(N)c4)nn3)C(=O)OC12C (centres unmarked) [FSM-120379]", ">64 µg/mL"),
    ("CCC1OC(=O)C(C)C(=O)C(C)C(OC2OC(C)CC(NCc3cccnc3)C2O)C(C)(OC)CC(C)CNC(C)C2N(CCCCn3cc(-c4cccc(N)c4)nn3)C(=O)OC12C (centres unmarked) [FSM-120384]", ">64 µg/mL"),
]

* * *

Test system: S. aureus
Assay: Broth dilution MIC determination (CLSI) against S. aureus strains
Format: cell-based
Conditions: S. aureus ATCC29213, strain MP-12 (Table N2)

# MOLECULE, MIC
data = [
    ("CCC1OC(=O)C(C)C(=O)C(C)C(OC2OC(C)CC(NCc3cccnc3)C2O)C(C)(OC)CC(C)CNC(C)C2N(CCCCn3cc(-c4cccc(N)c4)nn3)C(=O)OC12C (centres unmarked)", ">64 µg/mL"),
    ("CCC1OC(=O)C(C)C(=O)C(C)C(OC2OC(C)CC(N(C)CC#N)C2O)C(C)(OC)CC(C)CNC(C)C2N(CCCCn3cc(-c4cccc(N)c4)nn3)C(=O)OC12C (centres unmarked)", "32 µg/mL"),
    ("CCC1OC(=O)C(C)C(=O)C(C)C(OC2OC(C)CC(N(C)Cc3cccnc3)C2O)C(C)(OC)CC(C)CNC(C)C2N(CCCCn3cc(-c4cccc(N)c4)nn3)C(=O)OC12C (centres unmarked)", "4 µg/mL"),
    ("CCC1OC(=O)C(C)C(=O)C(C)C(OC2OC(C)CC(N(CCO)CCO)C2O)C(C)(OC)CC(C)CNC(C)C2N(CCCCn3cc(-c4cccc(N)c4)nn3)C(=O)OC12C (centres unmarked)", ">64 µg/mL"),
    ("CCC1OC(=O)C(C)C(=O)C(C)C(OC2OC(C)CC(N3CCOC3CO)C2O)C(C)(OC)CC(C)CNC(C)C2N(CCCCn3cc(-c4cccc(N)c4)nn3)C(=O)OC12C (centres unmarked)", ">64 µg/mL"),
]

Reference source: patent US11535643B2
